For each record, write down the corresponding solubility kinetic.
applied-conditions: buffer; pH 7.4; 200.0 µM

Past entries and their recorded results:
The reported solubility kinetic of the compound COc1ccc(C2C(CN3CCOCC3)C(=O)N2c2ccccc2)cc1 (configuration not stated) was > 52.9 µg/mL

The reported solubility kinetic of the compound "Cc1ccc([N+](=O)[O-])cc1NC(=O)C[n+]1ccccc1.[Cl-]" was > 46.2 µg/mL

The reported solubility kinetic of the compound "O=C(NCCS(=O)(=O)N1CCCC1)c1ccccc1" was > 42.4 µg/mL

The reported solubility kinetic of the compound "Cc1cc(NC(=O)c2ccccc2C)no1" was > 32.4 µg/mL

The reported solubility kinetic of the compound O=c1c2ccccc2nc2n1C(CSc1ccc(F)cc1)CS2 (configuration not stated) was > 51.7 µg/mL

The reported solubility kinetic of the compound COc1ccc(OC)c(/C=N/NC(=O)C(O)c2ccccc2)c1 (configuration not stated) was > 47.2 µg/mL

Attention now turns to another entry.
The reported solubility kinetic of the compound "Cc1ccc(Nc2ncnc3sccc23)c(C)c1" was > 38.3 µg/mL

Where do these numbers come from? They come from PubChem BioAssay AID1996.
